B1: Kinesin-like protein KIF16B, residues 1213 to 1273; numbered along this chain, Q96L93 (parent)
chain: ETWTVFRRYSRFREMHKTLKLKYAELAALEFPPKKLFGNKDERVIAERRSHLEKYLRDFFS

- Variants of: B1
- Run Description: abundance fitness (aPCA) (normalised: wild type 0, dead -1); higher = more abundant; growth selection in yeast, the domain comes from the species named
- Condition Summary: Homo sapiens
Each entry below carries its recorded abundance fitness.
Quantity Kind: abundance fitness

>  <Variant Descriptor>
F59C

>  <Observed Measurement>
-0.429

$$$$
>  <Variant Descriptor>
S10D

>  <Observed Measurement>
-0.224

$$$$
>  <Variant Descriptor>
T4E

>  <Observed Measurement>
0.223

$$$$
>  <Variant Descriptor>
A28G

>  <Observed Measurement>
-0.101

$$$$
>  <Variant Descriptor>
R43P

>  <Observed Measurement>
-0.004

$$$$
